System: 994946-033-R-J1-PDC complex spheroid viability;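 note: spheroids exposed to drugs for 7 days; 100% = DMSO vehicle treated spheroids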
Assay Details: Anticancer human tumor 994946-033-R-J1-PDC patient-derived melanoma cell line growth inhibition [POLQ]
Condition Parameters: second compound 10 µM; first compound 3.16 µM; active compounds read low
Endpoint Label: viability, T/C

Ask | Give viability, T/C for CNCc1ccc(-c2[nH]c3cc(F)cc4c3c2CCNC4=O)cc1 + COC1C(OC(N)=O)C(O)C(Oc2ccc3c(O)c(NC(=O)c4ccc(O)c(CC=C(C)C)c4)c(=O)oc3c2C)OC1(C)C
Reply | 94.5%

Ask | Please list viability, T/C recorded for the compound COc1cc2cc(C(=O)CCC(=O)O)sc2cc1OC + Nc1ccc(C#CCN(C(=O)Cc2ncc(C(F)(F)F)cc2C(F)(F)F)c2ccc(F)cc2)nn1
Reply | 115%

Ask | Indicate the recorded viability, T/C value for this compound: CNCc1ccc(-c2[nH]c3cc(F)cc4c3c2CCNC4=O)cc1 + Cc1cccc(N(C)C(=O)C2C(O)CCN2c2nc(C)cc(C(F)(F)F)c2C#N)c1
Reply | 86.8%

Ask | # return recorded viability, T/C for entry CC(C)n1c(=O)n(C)c2cnc3cc(F)c(-c4ccc(OCCCN5CCCCC5)nc4)cc3c21 + Nc1ccc(C#CCN(C(=O)Cc2ncc(C(F)(F)F)cc2C(F)(F)F)c2ccc(F)cc2)nn1
Reply | 87.9%

Ask | Quick one: give measured viability, T/C for Nc1ccn(C2OC(CO)C(O)C2(F)F)c(=O)n1 (stereo unspecified) + Cc1cccc(N(C)C(=O)C2C(O)CCN2c2nc(C)cc(C(F)(F)F)c2C#N)c1
Reply | 5.13%

Ask | Specify reported viability, T/C for the compound shown: O=C(Nc1ccc(O)c(NS(=O)(=O)c2ccc(F)cc2)c1)c1ccc(-c2ccccc2)cc1 + Cc1cccc(N(C)C(=O)C2C(O)CCN2c2nc(C)cc(C(F)(F)F)c2C#N)c1
Reply | 48.4%
